System: Spt7 bromodomain (residues 363–619)
assay_remarks: SPR binding of H3 peptides to immobilized Spt7 bromodomain
Parameters: species or system yeast
condition_description: SPR, Biacore T100/T200, 25°C, peptides 1-200 µM in HBS-P+, NTA chip-captured His-tagged bromodomain, 1:1 model; Figure 6A, n = 2–11

substance: TGGKAPRKQLASKAARC [unmodified H3 peptide, H3 peptide (11–26), unmodified, for bromodomain studies]
assayed_target: Spt7 bromodomain (residues 363–619)
Binding to Spt7 bromodomain: lack of binding
--
substance: TGG(Kac)APRKQLASKAARC [peptide acetylated at K14, H3 peptide (11–26) acetylated at K14, for bromodomain studies]
assayed_target: Spt7 bromodomain (residues 363–619)
Binding to Spt7 bromodomain: lack of binding

Reference for the values: paper PMC4157579
